experimentalSystem: T1, human PD-L1-Fc (human, UniProt Q9NZQ7 19-239)
T1 construct: also called hPD-L1-Fc; human PD-L1-Fc (Sino Biological, 70110-D02H); not shown: Fc part
T1 sequence (Q9NZQ7 19-239 limits assumed): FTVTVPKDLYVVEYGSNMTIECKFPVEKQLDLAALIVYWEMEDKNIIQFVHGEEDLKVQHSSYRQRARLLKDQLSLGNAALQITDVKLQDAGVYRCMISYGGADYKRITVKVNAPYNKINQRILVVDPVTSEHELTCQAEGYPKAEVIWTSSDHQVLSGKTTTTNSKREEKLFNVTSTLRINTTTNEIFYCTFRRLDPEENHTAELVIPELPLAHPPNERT
testSummary: BLI; PD-L1-Fc loaded on the sensor, scFv in solution
readoutKind: Kd
Units required after the number.

The following binders have reported results that may help.
binder="4B6 scFv variant L-CDR1-2 (scFv, also called 4B6-L-CDR1-2) scFv: DIQMTQSPSSLSASVGDRVTITCKASQNVPAAVAWYQQKPGKAPKLLIYSASNRYTGVPSRFSGSGSGTDFTLTISSLQPEDIATYYCQQYSNYPTFGQGTKLEIKGGGGSGGGGSGGGGSQVQLVQSGAEVKKPGASVKVSCKASGYVFTDYYMNWVRQAPGQSLEWMGDINPNNAGTSYNHKFKGRVTVTVDKSISTAYMELSRLRSDDTAVYYCVKWGDGPFAYWGQGTLVTVSS" val="5.68 nM"
binder="4B6 scFv variant L-CDR1-1 (scFv, also called 4B6-L-CDR1-1) scFv: DIQMTQSPSSLSASVGDRVTITCKASQNVGAIVAWYQQKPGKAPKLLIYSASNRYTGVPSRFSGSGSGTDFTLTISSLQPEDIATYYCQQYSNYPTFGQGTKLEIKGGGGSGGGGSGGGGSQVQLVQSGAEVKKPGASVKVSCKASGYVFTDYYMNWVRQAPGQSLEWMGDINPNNAGTSYNHKFKGRVTVTVDKSISTAYMELSRLRSDDTAVYYCVKWGDGPFAYWGQGTLVTVSS" val="6.91 nM"
binder="4B6-HgLa scFv (wild-type sequence for affinity maturation) (scFv, written VL-linker-VH; also called L-CDR1-WT; L-CDR2-WT) scFv: DIQMTQSPSSLSASVGDRVTITCKASQNVGAAVAWYQQKPGKAPKLLIYSASNRYTGVPSRFSGSGSGTDFTLTISSLQPEDIATYYCQQYSNYPTFGQGTKLEIKGGGGSGGGGSGGGGSQVQLVQSGAEVKKPGASVKVSCKASGYVFTDYYMNWVRQAPGQSLEWMGDINPNNAGTSYNHKFKGRVTVTVDKSISTAYMELSRLRSDDTAVYYCVKWGDGPFAYWGQGTLVTVSS" val="28.2 nM"

Now take the following binder into account.
Using the record for 4B6 scFv variant L-CDR1-3 (scFv, also called 4B6-L-CDR1-3) scFv: DIQMTQSPSSLSASVGDRVTITCKASQNVKGAVAWYQQKPGKAPKLLIYSASNRYTGVPSRFSGSGSGTDFTLTISSLQPEDIATYYCQQYSNYPTFGQGTKLEIKGGGGSGGGGSGGGGSQVQLVQSGAEVKKPGASVKVSCKASGYVFTDYYMNWVRQAPGQSLEWMGDINPNNAGTSYNHKFKGRVTVTVDKSISTAYMELSRLRSDDTAVYYCVKWGDGPFAYWGQGTLVTVSS , report its Kd.
2.78 nM
